Assay protocol: Pharmacokinetics following IV & SC administration
Settings: Wistar, rat, in vivo, iv, T½β (min) circulating half life; Conscious Wistar rats
Value kind: half-life (min)
Answers are plain numbers, in min.

The value of half-life measured for the compound `C[C@@H](O)[C@@H]1NC(=O)[C@H](CCCCN)NC(=O)[C@@H](Cc2c[nH]c3ccccc23)NC(=O)[C@H](Cc2c[nH]c3ccccc23)NC(=O)[C@H](Cc2ccccc2)NC(=O)CCCNC(=O)CCCN(CC(N)=O)C(=O)[C@H](Cc2ccccc2)NC1=O` turned out to be 31

* * *

Assay protocol: in vitro
Settings: kidney or brush border membranes
*1 amine or outer side, *2 acyl side, *3 side chain or, on linkers, in order; H or OH if unused. Where a SMILES comes first, the peptide text is derived from it. Bridges are numbered along the chain shown (N, C = ends). [ ]: non-standard residue; d: D form. Phe(Nα-CH2CH2CO) = O=C([C@H](Cc1ccccc1)N(CCC(=O)[*:3])[*:1])[*:2]
Value kind: remaining at 1 h (%)
One number for each entry, in %.

Some solved entries appear below for comparison.
# Compound, Unit, remaining at 1 h
measured = [
    ("NCCCC[C@H]1NC(=O)[C@@H](Cc2c[nH]c3ccccc23)NC(=O)[C@H](Cc2ccccc2)NC(=O)[C@H](Cc2ccccc2)NC(=O)[C@H](Cc2ccccc2)NC(=O)CCN([C@@H](Cc2ccccc2)C(N)=O)C1=O [PTR 3171, Phe*-Phe-Phe-(D)Trp-(D)Lys-Phe(C2)-X] (FFF[dW][dK][Phe(Nα-CH2CH2CO)]-NH2; lactam N-6)", "%", 100),
    ("C[C@@H](O)[C@@H]1NC(=O)[C@H](CCCCN)NC(=O)[C@@H](Cc2c[nH]c3ccccc23)NC(=O)[C@H](Cc2c[nH]c3ccccc23)NC(=O)[C@H](Cc2ccccc2)NC(=O)CCCNC(=O)CCCN(CC(N)=O)C(=O)[C@H](Cc2ccccc2)NC1=O [PTR 3173]", "%", 100),
    ("NCCCC[C@@H]1NC(=O)[C@@H](Cc2c[nH]c3ccccc23)NC(=O)[C@H](Cc2ccccc2)NC(=O)[C@H](Cc2ccccc2)NC(=O)[C@H](Cc2ccccc2)NCC(=O)NCCN([C@@H](Cc2ccccc2)C(N)=O)C1=O [PTR 3113, Phe(C1)-Phe-Phe-(D)Trp-Lys-Phe(N2)-X]", "%", 100),
    ("NCCCC[C@H]1NC(=O)[C@@H](Cc2c[nH]c3ccccc23)NC(=O)[C@H](Cc2ccccc2)NC(=O)[C@H](Cc2ccccc2)NC(=O)[C@H](Cc2ccccc2)NCC(=O)NCCN([C@@H](Cc2ccccc2)C(N)=O)C1=O [PTR 3123, Phe(C1)-Phe-Phe-(D)Trp-(D)Lys-Phe(N2)-X]", "%", 100),
    ("C[C@@H](O)[C@@H]1NC(=O)[C@H](CCCCN)NC(=O)[C@@H](Cc2c[nH]c3ccccc23)NC(=O)[C@H](Cc2ccccc2)NC(=O)[C@@H](NC(=O)[C@H](N)Cc2ccccc2)CSSC[C@@H](C(=O)N[C@H](CO)[C@@H](C)O)NC1=O [Octreotide]", "%", 100),
]

Now consider a different compound.
The value of remaining at 1 h measured for the compound C[C@H](N)C(=O)NCC(=O)N[C@H]1CSSC[C@@H](C(=O)O)NC(=O)[C@H](CO)NC(=O)[C@H]([C@@H](C)O)NC(=O)[C@H](Cc2ccccc2)NC(=O)[C@H]([C@@H](C)O)NC(=O)[C@H](CCCCN)NC(=O)[C@H](Cc2c[nH]c3ccccc23)NC(=O)[C@H](Cc2ccccc2)NC(=O)[C@H](Cc2ccccc2)NC(=O)[C@H](CC(N)=O)NC(=O)[C@H](CCCCN)NC1=O [SRIF, reference compound] turned out to be 5
